- System: L1210 leukemia ip in BDF1 mice, survival T/C
- procedureText: NCI In Vivo Anticancer Drug Screen. Data for tumor model L1210 Leukemia (intraperitoneal) in B6D2F1 (BDF1) mice
- runParameters: endpoint: mean survival time; dose: 200.0 mg/kg/injection; schedule: Q01DX009 (ip); vehicle: other; higher = longer survival
Inconclusive results and toxic doses are left out. Square brackets hold non-standard residues; d marks the D form. Peptide text beside a SMILES is read from it. * marks the point of attachment. ξ: configuration not given here. Tos = Cc1ccc(S(=O)(=O)*)cc1; ξY = NC(Cc1ccc(O)cc1)C(=O)O
measuredProperty: T/C

1) Cc1ccc(S(=O)(=O)NCC(=O)NC(Cc2ccc(O)cc2)C(=O)O)cc1 (stereo not drawn) (Tos-Gly-[ξY]-OH) : 102 % of control
2) CCSc1ccc2c(cc1=O)[C@@H](NC1OC(CO)C(O)C(O)C1O)CCc1cc(OC)c(OC)c(OC)c1-2 (stereo partly drawn) : 114 % of control
3) Cn1ncn(/N=C/c2ccc([N+](=O)[O-])o2)c1=O : 87 % of control
4) CCN(Cc1ccccc1)C(=O)Nc1cccc(Cl)c1 : 108 % of control
5) O=S(=O)(CCl)Nc1ccccn1 : 103 % of control
6) Cc1ccc(Nc2nnc(N=Nc3ccccc3)s2)cc1C : 98 % of control
7) CP1(=O)CC2OC23CCCCC31 (stereo not drawn) : 114 % of control
8) CCCCCCC(=O)/C=C/c1ccccc1Cl : 92 % of control
